# systemName: HLA-A*30:01
# procedureSummary: IEDB peptide-MHC binding, purified MHC/competitive/radioactivity; filed as Kd, often an IC50 or EC50 that approximates it; bounds were set here for any values at or beyond the usual limits of such assays
# measurementSetup: source organism: Dengue virus 2 Jamaica/1409/1983
property: Kd (nM)
Entry rule: numbers only, all in nM.

**Query** Request: Kd, test system HLA-A*30:01, entry CTILAAVSVS
**Result** 2830

**Query** Cool, now AFKVRPTFA
**Result** 52.1

**Query** Cool, now KRSLRPQPTE
**Result** 3690

**Query** Cool, now AVPSHWVPTS
**Result** 15000

**Query** Cool, now RTLRVLNLV
**Result** 222

====

# systemName: HLA-A*03:01
# procedureSummary: IEDB peptide-MHC binding, purified MHC/competitive/fluorescence; filed as Kd, often an IC50 or EC50 that approximates it; bounds were set here for any values at or beyond the usual limits of such assays
# measurementSetup: source organism: Homo sapiens
pKd: −log10 of the molar value.
property: pKd

**Query** Request the reported pKd associated with SLFNWLWYE
**Result** ≤ 4.70

====

# systemName: HLA-B*44:03
# procedureSummary: IEDB peptide-MHC binding, purified MHC/competitive/radioactivity; filed as Kd, often an IC50 or EC50 that approximates it; bounds were set here for any values at or beyond the usual limits of such assays
# measurementSetup: source organism: Mammarenavirus mopeiaense
pKd: −log10 of the molar value.
property: pKd

**Query** Request: pKd, test system HLA-B*44:03, entry PELLNNQFGT
**Result** ≤ 4.16

====

# systemName: HLA-B*35:01
# procedureSummary: IEDB peptide-MHC binding, purified MHC/direct/fluorescence; filed as Kd, often an IC50 or EC50 that approximates it; bounds were set here for any values at or beyond the usual limits of such assays
# measurementSetup: source organism: Escherichia coli O6
property: pKd
Just so you know, pKd here is -log10 of the concentration in molar units; reply with that number alone.

**Query** Request the reported pKd associated with TPVWHVTSA
**Result** 7.68

====

# systemName: HLA-A*29:02
# procedureSummary: IEDB peptide-MHC binding, purified MHC/direct/fluorescence; filed as Kd, often an IC50 or EC50 that approximates it; bounds were set here for any values at or beyond the usual limits of such assays
# measurementSetup: source organism: Zaire ebolavirus
property: Kd

**Query** Request: Kd, test system HLA-A*29:02, entry AFHQLVQVI
**Result** ≥ 20 µM

====

# systemName: HLA-B*27:03
# procedureSummary: IEDB peptide-MHC binding, purified MHC/competitive/fluorescence; filed as Kd, often an IC50 or EC50 that approximates it; bounds were set here for any values at or beyond the usual limits of such assays
# measurementSetup: source organism: Escherichia coli 536
pKd: −log10 of the molar value.
property: pKd

**Query** Request the reported pKd associated with QTDNDIWFW
**Result** ≤ 4.70

====

Give Kd for every item shown.
# systemName: HLA-B*48:01
# procedureSummary: IEDB peptide-MHC binding, purified MHC/direct/fluorescence; filed as Kd, often an IC50 or EC50 that approximates it; bounds were set here for any values at or beyond the usual limits of such assays
# measurementSetup: source organism: Coxiella burnetii

**Query** Request the reported Kd associated with IIGLLKIFR
**Result** ≥ 20 µM

**Query** Cool, now HEGDIVPLF
**Result** ≥ 20 µM

FYI, the data here is from the Immune Epitope Database (IEDB).
